system: Mycobacterium tuberculosis Erdman (autoluminescent); experiment: GRinf, maximum normalised growth rate inhibition (unitless (-1 to 1)); higher = less effect (negative = killing); conditions: in vitro model: valerate; time point: constant (~7 days, model-specific)
propertyLabel: GRinf
Answer field: number only, no words.

compound: CC[C@@H](CO)NCCN[C@@H](CC)CO [ethambutol] + NC(=O)c1cnccn1 [pyrazinamide]
studyTarget: Mycobacterium tuberculosis Erdman (autoluminescent)
GRinf: 0.281
--
compound: COc1nc2ccc(Br)cc2cc1[C@@H](c1ccccc1)[C@@](O)(CCN(C)C)c1cccc2ccccc12 [bedaquiline] + COc1c(N2C[C@@H]3CCCN[C@@H]3C2)c(F)cc2c(=O)c(C(=O)O)cn(C3CC3)c12 [moxifloxacin]
studyTarget: Mycobacterium tuberculosis Erdman (autoluminescent)
GRinf: -0.123
--
compound: CC(=O)NC[C@H]1CN(c2ccc(N3CCOCC3)c(F)c2)C(=O)O1 [linezolid] + NC(=O)c1cnccn1 [pyrazinamide]
studyTarget: Mycobacterium tuberculosis Erdman (autoluminescent)
GRinf: 0.131

Proceeding to the next compound to report its GRinf.
Prompt: Could you tell me which GRinf is on file for NC(=O)c1cnccn1 [pyrazinamide] + CO[C@H]1/C=C/O[C@@]2(C)Oc3c(C)c(O)c4c(O)c(c(/C=N/N5CCN(C)CC5)c(O)c4c3C2=O)NC(=O)/C(C)=C\C=C\[C@H](C)[C@H](O)[C@@H](C)[C@@H](O)[C@@H](C)[C@H](OC(C)=O)[C@@H]1C [rifampicin] ?
Completion: 0.201

====

Listed here: items and their measured AUC25.
tested on: Mycobacterium tuberculosis Erdman (autoluminescent); assay: AUC25, normalised area under dose response up to IC25 (three-drug combination) (fraction (0-1)); higher = more potent at low dose; settings: in vitro model: dormancy (butyrate + nitrate, low O2); time point: terminal (~4-5 doublings, model-specific)

Examples with answers:
molecule: CC[C@@H](CO)NCCN[C@@H](CC)CO [ethambutol] + NNC(=O)c1ccncc1 [isoniazid] + O=[N+]([O-])c1cn2c(n1)OC[C@@H](OCc1ccc(OC(F)(F)F)cc1)C2 [pretomanid]
AUC25: 0.105
--
molecule: COc1nc2ccc(Br)cc2cc1[C@@H](c1ccccc1)[C@@](O)(CCN(C)C)c1cccc2ccccc12 [bedaquiline] + CC(=O)NC[C@H]1CN(c2ccc(N3CCOCC3)c(F)c2)C(=O)O1 [linezolid] + O=[N+]([O-])c1cn2c(n1)OC[C@@H](OCc1ccc(OC(F)(F)F)cc1)C2 [pretomanid]
AUC25: 0.0294
--
molecule: CC(=O)NC[C@H]1CN(c2ccc(N3CCOCC3)c(F)c2)C(=O)O1 [linezolid] + O=[N+]([O-])c1cn2c(n1)OC[C@@H](OCc1ccc(OC(F)(F)F)cc1)C2 [pretomanid] + CO[C@H]1/C=C/O[C@@]2(C)Oc3c(C)c(O)c4c(O)c(c(/C=N/N5CCN(C6CCCC6)CC5)c(O)c4c3C2=O)NC(=O)/C(C)=C\C=C\[C@H](C)[C@H](O)[C@@H](C)[C@@H](O)[C@@H](C)[C@H](OC(C)=O)[C@@H]1C [rifapentine]
AUC25: 0.0403
--
molecule: CC(=O)NC[C@H]1CN(c2ccc(N3CCOCC3)c(F)c2)C(=O)O1 [linezolid] + NC(=O)c1cnccn1 [pyrazinamide] + CO[C@H]1/C=C/O[C@@]2(C)Oc3c(C)c(O)c4c(O)c(c(/C=N/N5CCN(C6CCCC6)CC5)c(O)c4c3C2=O)NC(=O)/C(C)=C\C=C\[C@H](C)[C@H](O)[C@@H](C)[C@@H](O)[C@@H](C)[C@H](OC(C)=O)[C@@H]1C [rifapentine]
AUC25: 0.0343
--
molecule: COc1nc2ccc(Br)cc2cc1[C@@H](c1ccccc1)[C@@](O)(CCN(C)C)c1cccc2ccccc12 [bedaquiline] + CC[C@@H](CO)NCCN[C@@H](CC)CO [ethambutol] + NNC(=O)c1ccncc1 [isoniazid]
AUC25: 0.0982

Prompt: Could you tell me which AUC25 is on file for CC(C)/N=c1\cc2n(-c3ccc(Cl)cc3)c3ccccc3nc-2cc1Nc1ccc(Cl)cc1 [clofazimine] + CC(=O)NC[C@H]1CN(c2ccc(N3CCOCC3)c(F)c2)C(=O)O1 [linezolid] + CO[C@H]1/C=C/O[C@@]2(C)Oc3c(C)c(O)c4c(O)c(c(/C=N/N5CCN(C6CCCC6)CC5)c(O)c4c3C2=O)NC(=O)/C(C)=C\C=C\[C@H](C)[C@H](O)[C@@H](C)[C@@H](O)[C@@H](C)[C@H](OC(C)=O)[C@@H]1C [rifapentine] ?
Completion: 0.046

====

Listed here: items and their measured total FIC50.
tested on: Mycobacterium tuberculosis Erdman (autoluminescent); test: total FIC50 (Loewe) at 50% inhibition, three-drug combination (log2); higher = more antagonistic; details: in vitro model: acidic pH 5.7; time point: constant (~7 days, model-specific)
Answer field: number only, no words.

molecule: CC[C@@H](CO)NCCN[C@@H](CC)CO [ethambutol] + COc1c(N2C[C@@H]3CCCN[C@@H]3C2)c(F)cc2c(=O)c(C(=O)O)cn(C3CC3)c12 [moxifloxacin] + CO[C@H]1/C=C/O[C@@]2(C)Oc3c(C)c(O)c4c(O)c(c(/C=N/N5CCN(C6CCCC6)CC5)c(O)c4c3C2=O)NC(=O)/C(C)=C\C=C\[C@H](C)[C@H](O)[C@@H](C)[C@@H](O)[C@@H](C)[C@H](OC(C)=O)[C@@H]1C [rifapentine]
studyTarget: Mycobacterium tuberculosis Erdman (autoluminescent)
propertyLabel: total FIC50
experimentalValue: 0.231

Proceeding to the next molecule to report its total FIC50.
Prompt: Could you tell me which total FIC50 is on file for NNC(=O)c1ccncc1 [isoniazid] + CC(=O)NC[C@H]1CN(c2ccc(N3CCOCC3)c(F)c2)C(=O)O1 [linezolid] + CO[C@H]1/C=C/O[C@@]2(C)Oc3c(C)c(O)c4c(O)c(c(/C=N/N5CCN(C6CCCC6)CC5)c(O)c4c3C2=O)NC(=O)/C(C)=C\C=C\[C@H](C)[C@H](O)[C@@H](C)[C@@H](O)[C@@H](C)[C@H](OC(C)=O)[C@@H]1C [rifapentine] ?
Completion: 0.653

====

Listed here: items and their measured Einf.
tested on: Mycobacterium tuberculosis Erdman (autoluminescent); assay: Einf, fitted maximum growth inhibition of three-drug combination (fraction); higher = stronger maximal inhibition; conditions: in vitro model: butyrate; time point: terminal (~4-5 doublings, model-specific)
Answer field: number only, no words.

Examples with answers:
molecule: COc1nc2ccc(Br)cc2cc1[C@@H](c1ccccc1)[C@@](O)(CCN(C)C)c1cccc2ccccc12 [bedaquiline] + CC(=O)NC[C@H]1CN(c2ccc(N3CCOCC3)c(F)c2)C(=O)O1 [linezolid] + O=[N+]([O-])c1cn2c(n1)OC[C@@H](OCc1ccc(OC(F)(F)F)cc1)C2 [pretomanid]
Einf: 0.97

molecule: COc1nc2ccc(Br)cc2cc1[C@@H](c1ccccc1)[C@@](O)(CCN(C)C)c1cccc2ccccc12 [bedaquiline] + CC(=O)NC[C@H]1CN(c2ccc(N3CCOCC3)c(F)c2)C(=O)O1 [linezolid] + CO[C@H]1/C=C/O[C@@]2(C)Oc3c(C)c(O)c4c(O)c(c(/C=N/N5CCN(C)CC5)c(O)c4c3C2=O)NC(=O)/C(C)=C\C=C\[C@H](C)[C@H](O)[C@@H](C)[C@@H](O)[C@@H](C)[C@H](OC(C)=O)[C@@H]1C [rifampicin]
Einf: 0.955

Proceeding to the next molecule to report its Einf.
Prompt: Please provide the recorded Einf for CC(C)/N=c1\cc2n(-c3ccc(Cl)cc3)c3ccccc3nc-2cc1Nc1ccc(Cl)cc1 [clofazimine] + CC(=O)NC[C@H]1CN(c2ccc(N3CCOCC3)c(F)c2)C(=O)O1 [linezolid] + COc1c(N2C[C@@H]3CCCN[C@@H]3C2)c(F)cc2c(=O)c(C(=O)O)cn(C3CC3)c12 [moxifloxacin] , tested on Mycobacterium tuberculosis Erdman (autoluminescent).
Completion: 0.978

====

system: Mycobacterium tuberculosis Erdman (autoluminescent); experiment: GRinf, maximum normalised growth rate inhibition (three-drug combination) (unitless (-1 to 1)); higher = less effect (negative = killing); settings: in vitro model: butyrate; time point: constant (~7 days, model-specific)
propertyLabel: GRinf
Answer field: number only, no words.

compound: NNC(=O)c1ccncc1 [isoniazid] + NC(=O)c1cnccn1 [pyrazinamide] + CO[C@H]1/C=C/O[C@@]2(C)Oc3c(C)c(O)c4c(O)c(c(/C=N/N5CCN(C6CCCC6)CC5)c(O)c4c3C2=O)NC(=O)/C(C)=C\C=C\[C@H](C)[C@H](O)[C@@H](C)[C@@H](O)[C@@H](C)[C@H](OC(C)=O)[C@@H]1C [rifapentine]
propertyLabel: GRinf
experimentalValue: -0.00381
//
compound: COc1nc2ccc(Br)cc2cc1[C@@H](c1ccccc1)[C@@](O)(CCN(C)C)c1cccc2ccccc12 [bedaquiline] + CC(C)/N=c1\cc2n(-c3ccc(Cl)cc3)c3ccccc3nc-2cc1Nc1ccc(Cl)cc1 [clofazimine] + NNC(=O)c1ccncc1 [isoniazid]
propertyLabel: GRinf
experimentalValue: -0.1
//
compound: COc1nc2ccc(Br)cc2cc1[C@@H](c1ccccc1)[C@@](O)(CCN(C)C)c1cccc2ccccc12 [bedaquiline] + CC[C@@H](CO)NCCN[C@@H](CC)CO [ethambutol] + O=[N+]([O-])c1cn2c(n1)OC[C@@H](OCc1ccc(OC(F)(F)F)cc1)C2 [pretomanid]
propertyLabel: GRinf
experimentalValue: -0.0548
//
compound: CC(C)/N=c1\cc2n(-c3ccc(Cl)cc3)c3ccccc3nc-2cc1Nc1ccc(Cl)cc1 [clofazimine] + O=[N+]([O-])c1cn2c(n1)OC[C@@H](OCc1ccc(OC(F)(F)F)cc1)C2 [pretomanid] + CO[C@H]1/C=C/O[C@@]2(C)Oc3c(C)c(O)c4c(O)c(c(/C=N/N5CCN(C)CC5)c(O)c4c3C2=O)NC(=O)/C(C)=C\C=C\[C@H](C)[C@H](O)[C@@H](C)[C@@H](O)[C@@H](C)[C@H](OC(C)=O)[C@@H]1C [rifampicin]
propertyLabel: GRinf
experimentalValue: -0.134
//
compound: COc1nc2ccc(Br)cc2cc1[C@@H](c1ccccc1)[C@@](O)(CCN(C)C)c1cccc2ccccc12 [bedaquiline] + O=[N+]([O-])c1cn2c(n1)OC[C@@H](OCc1ccc(OC(F)(F)F)cc1)C2 [pretomanid] + NC(=O)c1cnccn1 [pyrazinamide]
propertyLabel: GRinf
experimentalValue: -0.193

Proceeding to the next compound to report its GRinf.
Prompt: Could you tell me which GRinf is on file for COc1c(N2C[C@@H]3CCCN[C@@H]3C2)c(F)cc2c(=O)c(C(=O)O)cn(C3CC3)c12 [moxifloxacin] + NC(=O)c1cnccn1 [pyrazinamide] + CO[C@H]1/C=C/O[C@@]2(C)Oc3c(C)c(O)c4c(O)c(c(/C=N/N5CCN(C6CCCC6)CC5)c(O)c4c3C2=O)NC(=O)/C(C)=C\C=C\[C@H](C)[C@H](O)[C@@H](C)[C@@H](O)[C@@H](C)[C@H](OC(C)=O)[C@@H]1C [rifapentine] ?
Completion: 0.0713
